Reference source: patent US20230272056A1

# SYSTEM: T1, human LAP-TGFB1 Fc fusion (human)
# T1 construct: also called human LAP-TGFβ1-Fc; human LAP-TGFβ-Fc isoform 1
# T1 sequence (chain, as listed by the source limits assumed): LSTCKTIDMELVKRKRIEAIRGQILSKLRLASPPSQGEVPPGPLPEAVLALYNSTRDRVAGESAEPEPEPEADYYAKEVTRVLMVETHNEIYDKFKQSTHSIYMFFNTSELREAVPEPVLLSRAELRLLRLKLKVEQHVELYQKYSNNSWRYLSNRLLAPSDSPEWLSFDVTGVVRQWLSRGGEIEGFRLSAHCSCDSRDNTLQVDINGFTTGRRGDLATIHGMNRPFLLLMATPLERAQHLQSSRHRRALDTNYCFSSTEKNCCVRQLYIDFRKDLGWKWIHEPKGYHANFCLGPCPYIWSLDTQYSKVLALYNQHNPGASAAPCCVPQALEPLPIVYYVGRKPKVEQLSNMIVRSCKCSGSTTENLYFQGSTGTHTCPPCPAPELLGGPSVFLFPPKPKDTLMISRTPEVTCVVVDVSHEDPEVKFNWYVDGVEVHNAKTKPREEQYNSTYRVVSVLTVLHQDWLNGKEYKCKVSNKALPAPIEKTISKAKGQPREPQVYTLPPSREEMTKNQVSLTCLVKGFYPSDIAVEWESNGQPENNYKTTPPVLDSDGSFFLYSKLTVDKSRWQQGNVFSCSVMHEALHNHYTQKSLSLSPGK
# MEASUREMENT_PROTOCOL: BLI off-rate screen
QUANTITY_NAME: koff (s⁻¹)
Hi! Could you send only the number? It should be in s⁻¹, unit omitted.

Below, each entry is followed by its recorded koff result.
Input line: I am curious: what koff value has been reported for VL T93Y (58BIT) (Fab, V domains shown) VH: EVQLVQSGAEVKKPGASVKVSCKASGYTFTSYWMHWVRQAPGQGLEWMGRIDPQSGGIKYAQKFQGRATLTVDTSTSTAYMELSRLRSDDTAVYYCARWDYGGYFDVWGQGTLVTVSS VL: DIQMTQSPSSLSASVGDRVTITCRASQDITNYLNWYQQKPGKAVKLLIYYTSRLHSGVPSRFSGSGSGTDYTLTISSLQPEDFATYFCQQGDYLPWTFGQGTKLEIKR ?
Output line: 0.0273

Input line: Consider next the binder VH T28Y (67BIT) (Fab, V domains shown) VH: EVQLVQSGAEVKKPGASVKVSCKASGYYFTSYWMHWVRQAPGQGLEWMGRIDPQSGGIKYAQKFQGRATLTVDTSTSTAYMELSRLRSDDTAVYYCARWDYGGYFDVWGQGTLVTVSS VL: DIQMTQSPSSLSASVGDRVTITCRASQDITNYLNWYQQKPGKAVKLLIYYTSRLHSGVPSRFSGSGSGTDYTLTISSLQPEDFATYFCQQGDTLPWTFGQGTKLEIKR in the same way.
Output line: 0.0343

Input line: Consider next the binder VH G55Y (81BIT) (Fab, V domains shown) VH: EVQLVQSGAEVKKPGASVKVSCKASGYTFTSYWMHWVRQAPGQGLEWMGRIDPQSYGIKYAQKFQGRATLTVDTSTSTAYMELSRLRSDDTAVYYCARWDYGGYFDVWGQGTLVTVSS VL: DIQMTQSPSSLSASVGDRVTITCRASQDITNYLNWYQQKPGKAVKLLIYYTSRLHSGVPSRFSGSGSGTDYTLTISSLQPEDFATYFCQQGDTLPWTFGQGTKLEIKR in the same way.
Output line: 0.036

Input line: Consider next the binder VL D28Y (42BIT) (Fab, V domains shown) VH: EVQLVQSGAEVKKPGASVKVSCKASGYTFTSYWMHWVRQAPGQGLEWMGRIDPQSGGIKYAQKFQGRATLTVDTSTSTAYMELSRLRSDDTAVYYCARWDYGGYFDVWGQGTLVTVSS VL: DIQMTQSPSSLSASVGDRVTITCRASQYITNYLNWYQQKPGKAVKLLIYYTSRLHSGVPSRFSGSGSGTDYTLTISSLQPEDFATYFCQQGDTLPWTFGQGTKLEIKR in the same way.
Output line: 0.0318

Input line: Consider next the binder VL S52Y (49BIT) (Fab, V domains shown) VH: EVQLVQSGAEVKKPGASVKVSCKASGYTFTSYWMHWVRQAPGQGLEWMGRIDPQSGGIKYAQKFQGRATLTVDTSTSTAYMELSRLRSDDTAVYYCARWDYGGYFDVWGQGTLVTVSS VL: DIQMTQSPSSLSASVGDRVTITCRASQDITNYLNWYQQKPGKAVKLLIYYTYRLHSGVPSRFSGSGSGTDYTLTISSLQPEDFATYFCQQGDTLPWTFGQGTKLEIKR in the same way.
Output line: 0.0409

Input line: Consider next the binder VL S26Y (40BIT) (Fab, V domains shown) VH: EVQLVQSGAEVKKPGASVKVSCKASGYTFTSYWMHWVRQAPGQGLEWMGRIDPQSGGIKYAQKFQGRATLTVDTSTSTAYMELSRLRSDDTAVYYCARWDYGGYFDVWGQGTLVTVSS VL: DIQMTQSPSSLSASVGDRVTITCRAYQDITNYLNWYQQKPGKAVKLLIYYTSRLHSGVPSRFSGSGSGTDYTLTISSLQPEDFATYFCQQGDTLPWTFGQGTKLEIKR in the same way.
Output line: 0.0283

Input line: Consider next the binder VL N31Y (45BIT) (Fab, V domains shown) VH: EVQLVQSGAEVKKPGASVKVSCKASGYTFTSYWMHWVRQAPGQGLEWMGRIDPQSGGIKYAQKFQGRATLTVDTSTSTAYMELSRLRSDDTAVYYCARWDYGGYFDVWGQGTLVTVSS VL: DIQMTQSPSSLSASVGDRVTITCRASQDITYYLNWYQQKPGKAVKLLIYYTSRLHSGVPSRFSGSGSGTDYTLTISSLQPEDFATYFCQQGDTLPWTFGQGTKLEIKR in the same way.
Output line: 0.0241

Could you now consider this next binder?
Input line: I am curious: what koff value has been reported for VH W33Y (71BIT) (Fab, V domains shown) VH: EVQLVQSGAEVKKPGASVKVSCKASGYTFTSYYMHWVRQAPGQGLEWMGRIDPQSGGIKYAQKFQGRATLTVDTSTSTAYMELSRLRSDDTAVYYCARWDYGGYFDVWGQGTLVTVSS VL: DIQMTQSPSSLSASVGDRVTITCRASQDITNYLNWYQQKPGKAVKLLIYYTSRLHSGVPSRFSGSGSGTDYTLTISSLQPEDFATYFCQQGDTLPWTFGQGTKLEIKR ?
Output line: 0.023
